target: p300 (Homo sapiens); construct: host or cells: A549 P300 HiBit cells; assay: P300 degradation, HiBit technology in A549 P300 HiBit cells (2 h); format: cell-based; conditions: A549 P300 HiBit cells, 2 hrs post treatment
Sequence (Q09472 whole entry): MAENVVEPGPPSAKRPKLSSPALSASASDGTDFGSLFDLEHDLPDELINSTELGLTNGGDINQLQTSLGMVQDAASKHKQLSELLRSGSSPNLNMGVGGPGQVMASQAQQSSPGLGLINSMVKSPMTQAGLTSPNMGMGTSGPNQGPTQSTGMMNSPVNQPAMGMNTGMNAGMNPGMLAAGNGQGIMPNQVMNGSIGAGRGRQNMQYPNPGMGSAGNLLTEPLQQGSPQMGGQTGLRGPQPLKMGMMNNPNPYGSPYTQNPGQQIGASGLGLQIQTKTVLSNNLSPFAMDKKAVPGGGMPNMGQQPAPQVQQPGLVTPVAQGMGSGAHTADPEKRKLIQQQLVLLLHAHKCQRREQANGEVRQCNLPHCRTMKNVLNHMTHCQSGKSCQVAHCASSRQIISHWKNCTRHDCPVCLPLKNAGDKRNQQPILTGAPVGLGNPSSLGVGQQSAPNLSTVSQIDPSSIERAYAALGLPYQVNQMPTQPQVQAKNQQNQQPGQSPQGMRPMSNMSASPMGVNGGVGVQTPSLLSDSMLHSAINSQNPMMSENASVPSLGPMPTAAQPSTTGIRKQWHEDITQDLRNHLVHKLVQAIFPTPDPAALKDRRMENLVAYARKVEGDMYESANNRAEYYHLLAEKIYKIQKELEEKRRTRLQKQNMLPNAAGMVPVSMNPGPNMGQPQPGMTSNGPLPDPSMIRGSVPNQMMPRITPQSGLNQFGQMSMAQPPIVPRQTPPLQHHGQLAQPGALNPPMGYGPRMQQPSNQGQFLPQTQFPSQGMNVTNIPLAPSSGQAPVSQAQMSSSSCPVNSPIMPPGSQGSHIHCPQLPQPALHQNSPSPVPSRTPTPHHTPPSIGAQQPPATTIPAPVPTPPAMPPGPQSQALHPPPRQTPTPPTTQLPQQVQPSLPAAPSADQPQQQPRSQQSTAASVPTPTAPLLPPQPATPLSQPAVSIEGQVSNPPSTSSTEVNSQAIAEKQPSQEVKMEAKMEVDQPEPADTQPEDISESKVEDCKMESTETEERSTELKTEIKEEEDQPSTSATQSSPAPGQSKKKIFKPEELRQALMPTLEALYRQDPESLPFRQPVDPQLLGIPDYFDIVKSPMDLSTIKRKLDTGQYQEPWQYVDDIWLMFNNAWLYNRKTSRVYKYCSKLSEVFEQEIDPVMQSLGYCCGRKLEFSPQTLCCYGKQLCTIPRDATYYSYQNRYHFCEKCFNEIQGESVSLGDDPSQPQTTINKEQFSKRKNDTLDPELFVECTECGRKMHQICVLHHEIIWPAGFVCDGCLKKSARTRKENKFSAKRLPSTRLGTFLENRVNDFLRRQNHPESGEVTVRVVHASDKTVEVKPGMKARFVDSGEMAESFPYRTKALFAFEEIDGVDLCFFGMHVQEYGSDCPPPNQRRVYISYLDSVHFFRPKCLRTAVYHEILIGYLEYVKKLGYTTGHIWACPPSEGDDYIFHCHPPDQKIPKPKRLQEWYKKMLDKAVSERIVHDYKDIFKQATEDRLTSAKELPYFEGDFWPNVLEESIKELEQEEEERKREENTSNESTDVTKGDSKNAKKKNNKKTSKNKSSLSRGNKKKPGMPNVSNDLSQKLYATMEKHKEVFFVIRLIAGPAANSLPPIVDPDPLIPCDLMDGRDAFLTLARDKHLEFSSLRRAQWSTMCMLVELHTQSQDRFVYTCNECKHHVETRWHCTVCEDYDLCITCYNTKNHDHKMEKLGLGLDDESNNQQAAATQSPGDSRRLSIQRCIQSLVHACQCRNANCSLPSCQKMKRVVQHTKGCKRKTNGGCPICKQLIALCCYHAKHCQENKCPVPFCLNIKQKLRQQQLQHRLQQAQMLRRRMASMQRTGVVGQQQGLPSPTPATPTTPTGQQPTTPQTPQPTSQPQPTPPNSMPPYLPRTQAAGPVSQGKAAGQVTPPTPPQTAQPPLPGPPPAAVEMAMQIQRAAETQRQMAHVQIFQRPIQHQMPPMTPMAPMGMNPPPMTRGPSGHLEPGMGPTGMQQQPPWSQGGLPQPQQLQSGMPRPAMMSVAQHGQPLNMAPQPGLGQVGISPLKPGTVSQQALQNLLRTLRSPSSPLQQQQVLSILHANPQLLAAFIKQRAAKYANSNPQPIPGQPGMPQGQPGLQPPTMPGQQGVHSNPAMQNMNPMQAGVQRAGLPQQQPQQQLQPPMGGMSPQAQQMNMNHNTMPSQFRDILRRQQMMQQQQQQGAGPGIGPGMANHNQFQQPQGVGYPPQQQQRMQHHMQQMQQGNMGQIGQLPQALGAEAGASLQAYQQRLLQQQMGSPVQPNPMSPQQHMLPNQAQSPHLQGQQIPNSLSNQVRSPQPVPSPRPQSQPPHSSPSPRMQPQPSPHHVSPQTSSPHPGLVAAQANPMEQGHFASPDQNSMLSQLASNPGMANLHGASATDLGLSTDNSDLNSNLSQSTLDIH
quantity: DC50

Answered cases to consult:
compound	DC50
Cc1cc2c(N3CCOc4cc(-c5ccc(C(=O)NCC#Cc6ccc7occ(C8CCC(=O)NC8=O)c7c6)nc5)ncc43)cc(F)cc2n(C)c1=O (stereo not shown)	1 to 9.9 nM
Cc1cc(-c2cccc3cc(-c4ccc(C(=O)NCC#Cc5cc6c(C7CCC(=O)NC7=O)cccc6o5)nc4)ncc23)cc2c1n(C)c(=O)n2C (stereo not shown)	< 1 nM
Cc1cc2c(N3CCOc4nc(-c5ccc(C(=O)NCC#Cc6cc7c(C8CCC(=O)NC8=O)cccc7o6)nc5)ncc43)cc(C3CCOCC3)cc2n(C)c1=O (stereo not shown)	1 to 9.9 nM
CCc1cc(N(C)c2ccc(-c3cnc(C(=O)NCC#Cc4cccc(NC5CCC(=O)NC5=O)c4)c(C)c3)cc2)c2cc(C)c(=O)n(C)c2c1 (stereo not shown)	10 to 99 nM
Cn1c(=O)n(C)c2c(N3C4COCC3C4)nc(-c3cccc4cc(-c5ccc(C(=O)NCC#Cc6ccc7occ(C8CCC(=O)NC8=O)c7c6)nc5)ncc34)cc21 (stereo not shown)	< 1 nM
CCn1c(=O)n(C)c2ccc(-c3cccc4cc(-c5ccc(C(=O)NCC#Cc6cc7c(C8CCC(=O)NC8=O)cccc7o6)nc5)ncc34)cc21 (stereo not shown)	1 to 9.9 nM
Cc1cc2c(N3CCCc4nc(-c5ccc(C(=O)NCC#Cc6cc7c(C8CCC(=O)NC8=O)cccc7s6)nc5)ncc43)cc(C3CCOCC3)cc2n(C)c1=O (stereo not shown)	1 to 9.9 nM
Cn1c(=O)n(C)c2c(N3CCC(C)(O)CC3)cc(-c3cccc4cc(-c5ccc(C(=O)NCC#Cc6cccc(NC7CCC(=O)NC7=O)c6)nc5)ncc34)cc21 (stereo not shown)	< 1 nM

Prompt: Dear colleague, I am looking for the recorded DC50 of the following compound: CN(c1cnc(-c2ccc(C(=O)NCC#Cc3cc4c(C5CCC(=O)NC5=O)cccc4o3)nc2)nc1)c1cc(C2CCOCC2)c2c(c1)n(C)c(=O)n2C (stereo not shown)
Completion: < 1 nM

Prompt: Request: Cn1c(=O)n(C)c2cc(N3CC(C)(C)Oc4nc(-c5ccc(C(=O)NCC#Cc6cc7c(C8CCC(=O)NC8=O)cccc7o6)nc5)ncc43)ccc21 (stereo not shown)
Completion: 1 to 9.9 nM

Prompt: Consider next the compound Cc1cc2c(N3CCN(C)c4nc(-c5ccc(C(=O)NCC#Cc6ccc7occ(C8CCC(=O)NC8=O)c7c6)nc5)ncc43)cc(C3CCOCC3)cc2n(C)c1=O (stereo not shown) in the same way.
Completion: < 1 nM

Prompt: Same read-out for Cc1cc(-c2ncc3c(n2)CCCN3c2cc(C3CCOCC3)nc3c2cc(C)c(=O)n3C)cnc1C(=O)NCC#Cc1cc2c(C3CCC(=O)NC3=O)cccc2o1 (stereo not shown) ?
Completion: 1 to 9.9 nM

Prompt: Param item: COc1nc(-c2cnc(C(=O)NCC#Cc3cc4c(C5CCC(=O)NC5=O)cccc4o3)c(C)c2)ncc1N(C)c1cc(C2CCOCC2)c2c(c1)n(C)c(=O)n2C (stereo not shown)
Completion: 1 to 9.9 nM

Prompt: Lookup Cc1cc2c(N3CCN(C)c4nc(-c5ccc(C(=O)NCC#Cc6ccc7occ(C8CCC(=O)NC8=O)c7c6)nc5)ncc43)cccc2n(C)c1=O (stereo not shown)
Completion: 1 to 9.9 nM

Prompt: Field entry: Cc1cc2c(N3CCCc4nc(-c5ccc(C(=O)NCC#Cc6ccc7occ(C8CCC(=O)NC8=O)c7c6)nc5)ncc43)nc(N3CC4(COC4)C3)cc2n(C)c1=O (stereo not shown)
Completion: 1 to 9.9 nM

Prompt: What about Cc1cc2c(N3CCCc4cc(-c5ccc(C(=O)NCC#Cc6ccc7occ(C8CCC(=O)NC8=O)c7c6)nc5)nnc43)cc(C3CCOCC3)cc2n(C)c1=O (stereo not shown) ?
Completion: 1 to 9.9 nM

Prompt: Can you handle Cc1cc2c(N3CCCc4nc(-c5ccc(C(=O)NCC#Cc6ccc7occ(C8CCC(=O)NC8=O)c7c6)nc5)ncc43)cc(Cl)cc2n(C)c1=O (stereo not shown) next?
Completion: 1 to 9.9 nM

Prompt: Thanks! And Cn1c(=O)n(C)c2c(N3CC(O)C3)nc(-c3cccc4cc(-c5ccc(C(=O)NCC#Cc6ccc7occ(C8CCC(=O)NC8=O)c7c6)nc5)ncc34)cc21 (stereo not shown) ?
Completion: < 1 nM

Prompt: Follow-up item: CN1CCN(c2ccc3c(c2)n(C)c(=O)n3C)c2cnc(-c3ccc(C(=O)NCC#Cc4cc5c(C6CCC(=O)NC6=O)nccc5o4)nc3)nc21 (stereo not shown)
Completion: < 1 nM

Prompt: Follow-up entry: Cc1cc(-c2ncc(N(C)c3cc(C(C)C)c4c(c3)n(C)c(=O)n4C)cc2F)cnc1C(=O)NCC#Cc1ccc2occ(C3CCC(=O)NC3=O)c2c1 (stereo not shown)
Completion: 1 to 9.9 nM

Prompt: And what about the compound Cc1cc2c(-c3cccc4cc(-c5ccc(C(=O)NCC#Cc6ccc7occ(C8CCC(=O)NC8=O)c7c6)nc5)ncc34)nc(N3CC(C)(O)C3)cc2n(C)c1=O (stereo not shown) ?
Completion: 1 to 9.9 nM

Prompt: Same for CC(C)c1cc(-c2cccc3cc(-c4ccc(C(=O)NCC#Cc5ccc6c(c5)ncn6C5CCC(=O)NC5=O)nc4)ncc23)cc2c1n(C)c(=O)n2C (stereo not shown)
Completion: > 1000 nM

====

We begin with a simple list: items and their reported DC50.
target: p300 (Homo sapiens); construct: host or cells: A549 P300 HiBit cells; experiment: P300 degradation, HiBit technology in A549 P300 HiBit cells (2 h); format: cell-based; settings: A549 P300 HiBit cells, 2 hrs post treatment

// solved cases for DC50 follow
compound	DC50
Cc1cc2c(N3CCOc4cc(-c5ccc(C(=O)NCC#Cc6ccc7occ(C8CCC(=O)NC8=O)c7c6)nc5)c(F)cc43)cc(N3CC(C)(O)C3)cc2n(C)c1=O (stereo not drawn)	1 to 9.9 nM
CC(C)c1cc(N2CCCc3cc(-c4ccc(C(=O)NCC#Cc5ccc6occ(C7CCC(=O)NC7=O)c6c5)nc4)ncc32)cc2c1n(C)c(=O)n2C (stereo not drawn)	1 to 9.9 nM
Cc1cc2c(-c3cccc4cc(-c5ccc(C(=O)NCC#Cc6ccc7occ(C8CCC(=O)NC8=O)c7c6)nc5)ncc34)nc(C3CCOCC3)cc2n(C)c1=O (stereo not drawn)	1 to 9.9 nM
CC(C)c1cc(-c2cccc3cc(-c4ccc(C(=O)NCC#Cc5ccc6occ(C7CCC(=O)NC7=O)c6c5)nc4)ncc23)cc2c1n(C)c(=O)n2C (stereo not drawn)	1 to 9.9 nM

Prompt: Given the entry CC(C)c1cc(-c2cccc3cc(-c4ccc(C(=O)NCC#Cc5ccc6ncc(C7CCC(=O)NC7=O)n6c5)nc4)ncc23)cc2c1n(C)c(=O)n2C (stereo not drawn) , report its measured DC50.
Completion: < 1 nM

Prompt: Query CCN(c1cnc(-c2ccc(C(=O)NCC#Cc3cc4c(C5CCC(=O)NC5=O)cccc4o3)nc2)nc1)c1cc(C2CCOCC2)c2c(c1)n(C)c(=O)n2C (stereo not drawn) next
Completion: 1 to 9.9 nM

====

molecular target: p300 (Homo sapiens); construct: host or cells: A549 P300 HiBit cells; experiment: P300 degradation, HiBit technology in A549 P300 HiBit cells (2 h); type: cell-based; conditions: A549, A549 P300 HiBit cells, 2 hrs post treatment
Catalogue of Dmax values

> print(dat)
                                   molecule  reported.measurement
1  CC(C)c1cc(-c2cccc3cc(-c4ccc(C(=O)NCC#Cc5cc(F)c6occ(C7CCC(=O)NC7=O)c6c5)nc4)ncc23)cc2c1n(C)c(=O)n2C (stereo not drawn)                 > 80%
2  CCc1cc2c(cc(C)c(=O)n2C)c(N2CCCc3nc(-c4ccc(C(=O)NCC#Cc5ccc6occ(C7CCC(=O)NC7=O)c6c5)nc4)ncc32)n1 (stereo not drawn)             40 to 59%
3  CC(C)c1cc(N2CCOc3cc(-c4ccc(C(=O)NCC#Cc5ccc6occ(C7CCC(=O)NC7=O)c6c5)nc4)c(C#N)cc32)cc2c1n(C)c(=O)n2C (stereo not drawn)                 > 80%
4  CC(C)c1cc(-c2cccc3cc(-c4ccc(C(=O)NCC#Cc5cnc6ccn(C7CCC(=O)NC7=O)c6c5)nc4)ncc23)cc2c1n(C)c(=O)n2C (stereo not drawn)                 > 80%
5  Cc1cc(-c2ncc(N(C)c3cc(C(C)C)c4c(c3)n(C)c(=O)n4C)cc2F)cnc1C(=O)NCC#Cc1ccc2occ(C3CCC(=O)NC3=O)c2c1 (stereo not drawn)                 > 80%

Prompt: Which Dmax is reported for this molecule? Cc1cc2c(N3CCCc4nc(-c5ccc(C(=O)NCC#Cc6cc7c(C8CCC(=O)NC8=O)cccc7s6)nc5)ncc43)cc(C3CCOCC3)cc2n(C)c1=O (stereo not drawn)
Completion: > 80%
